I'd appreciate it if you could supply melting point values for the items below.

The value of melting point measured for the compound `O=C(NCc1ccccn1)c1cc(OCC(F)(F)F)ccc1O` turned out to be 143 to 145 °C

The value of melting point measured for the compound `Nc1cccc(-c2ccc(CCN3CCC(N)CC3)cc2)n1` turned out to be 190 to 195 °C

The value of melting point measured for the compound `O=C(O)CCCCCCCNS(=O)(=O)c1ccc([N+](=O)[O-])cc1` turned out to be 126 to 127 °C

The value of melting point measured for the compound `CS(=O)(=O)c1ccc(-c2cnn(-c3ccc(F)c(F)c3)c(=O)c2-c2ccc(F)cc2)cc1` turned out to be 109 to 110 °C

The value of melting point measured for the compound `Cn1ccc2cc(NC(=O)Nc3cccc4cccnc34)ccc21` turned out to be 205 to 209 °C

The value of melting point measured for the compound `Cn1cc(C(=O)NCc2ccc(Cl)cc2)c(=O)c2cc(CN3CCOCC3)cc(C#CCCO)c21` turned out to be 168 to 170 °C

The value of melting point measured for the compound `COc1cccc(N(CC(=O)N(C)c2ccccc2)C(=O)CNC(=O)Nc2cccc(CO)c2)c1` turned out to be 142 °C

The value of melting point measured for the compound `CC(C)COc1cc(C(=O)O)cc(N)c1C(=O)c1ccccc1` turned out to be 192 to 196 °C

The value of melting point measured for the compound `CCCCNC(=O)NS(=O)(=O)c1ccc(CCNC(=O)N2Cc3ccccc3C2=O)cc1` turned out to be 188 to 190 °C
